Some compounds, each annotated with its measured Log Po.
EXPERIMENT: Intrinsic permeability of the compound
Format: ADME

Sample records with Log Po:
{"columns": ["COMPOUND", "Log Po"],
 "data": [
  ["O=C1NC(=O)C(c2ccccc2)(c2ccccc2)N1 [PHENYTOIN]", -3.6],
  ["C=CCc1ccccc1OCC(O)CNC(C)C (stereo unspecified) [ALPRENOLOL]", -1.6]
]}

Value of measured Log Po for the entry O=C(O)Cc1ccccc1Nc1c(Cl)cccc1Cl [DICLOFENAC] : -1.3

Value of measured Log Po for the entry CC(C)(C)NC[C@H](O)COc1nsnc1N1CCOCC1 [TIMOLOL] : -3.2

Value of measured Log Po for the entry CC(C(=O)O)c1cccc(C(=O)c2ccccc2)c1 (stereo unspecified) [KETOPROFEN] : -2.7

Value of measured Log Po for the entry N=C(N)N/N=C/c1c(Cl)cccc1Cl [GUANABENZ] : -4.6

###

EXPERIMENT: Effective permeability (Pe) across a hexadecane membrane (pH 6.8)
Assay type: ADME
Some compounds, each annotated with its measured Log Pe.
Respond numerically; units are cm s-1 and should not be typed.

Sample records with Log Pe:
{"columns": ["COMPOUND", "Log Pe [cm s-1]"],
 "data": [
  ["CC(CCc1ccccc1)NCC(O)c1ccc(O)c(C(N)=O)c1 (stereo unspecified)", -4.2],
  ["C[C@]12CC[C@H]3[C@@H](CCC4=CC(=O)CC[C@@]43C)[C@@H]1CC[C@@H]2O", -3.5],
  ["Nc1nc2c(ncn2COCCO)c(=O)[nH]1", -4.8],
  ["CN(Cc1cnc2nc(N)nc(N)c2n1)c1ccc(C(=O)N[C@@H](CCC(=O)O)C(=O)O)cc1 [METHOTREXATE]", -4.7],
  ["NC(=O)N1c2ccccc2C=Cc2ccccc21 [CARBAMAZEPINE]", -3.9],
  ["CC(=O)N(O)CCCCCNC(=O)CCC(=O)N(O)CCCCCNC(=O)CCC(=O)N(O)CCCCCN", -5.3],
  ["O=C1NC(=O)C(c2ccccc2)(c2ccccc2)N1", -4],
  ["O=C(O)c1cc(/N=N/c2ccc(S(=O)(=O)Nc3ccccn3)cc2)ccc1O", -4.9]
]}

Value of measured Log Pe for the entry CN/C(=C/[N+](=O)[O-])NCCSCc1ccc(CN(C)C)o1 : -4.6

Value of measured Log Pe for the entry N=C(N)NC(=O)c1nc(Cl)c(N)nc1N [AMILORIDE] : -4.6

Value of measured Log Pe for the entry CC(C)NCC(O)COc1cccc2ccccc12 (stereo unspecified) : -4.4

###

EXPERIMENT: Partition coefficient (logD6.8)
Type: physicochemical
APPLIED CONDITIONS: octanol/water, pH 6.8; read-out: logD
Quick rule for you: logD under -0.8 gets Satisfied, anything else gets Not satisfied.

Check out these entries, answers already filled in.
{"columns": ["MOLECULE", "LABEL VALUE"],
 "data": [
  ["CN(Cc1cnc2nc(N)nc(N)c2n1)c1ccc(C(=O)N[C@@H](CCC(=O)O)C(=O)O)cc1 [METHOTREXATE]", "Satisfied"],
  ["N=C(N)NC(=O)c1nc(Cl)c(N)nc1N [AMILORIDE]", "Satisfied"],
  ["CC(C)(C)NCC(O)c1cc(O)cc(O)c1 (stereo not given)", "Satisfied"],
  ["C=CCc1ccccc1OCC(O)CNC(C)C (stereo not given)", "Not satisfied"],
  ["CN1C(C(=O)Nc2ccccn2)=C(O)c2ccccc2S1(=O)=O", "Not satisfied"]
]}

Req: Does CC(CCc1ccccc1)NCC(O)c1ccc(O)c(C(N)=O)c1 (stereo not given) have logD strictly under -0.8?
Resp: Not satisfied

Req: Does CN/C(=C/[N+](=O)[O-])NCCSCc1ccc(CN(C)C)o1 have logD strictly under -0.8?
Resp: Satisfied

Req: Does CN/C(=N/CCSCc1nc[nH]c1C)NC#N have logD strictly under -0.8?
Resp: Not satisfied
